This collection of values is drawn from the domain aggregation screens of Martell et al. (2025).

The entries below come with measured soluble fraction (log2) values attached.
Assay: soluble fraction after stress (log2 fold change); higher = more stays soluble; pooled small domains, quantitative proteomics;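 further: 20 min heating vs room temperature control held 20 min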
Details: stress: 75 degC
Kindly provide the number alone.

Some sequences with known soluble fraction (log2) results, for comparison:
{"RECORD_SEQUENCE": "HMRLSVRQRMSDVLGALKTQAFVEFTQLFRPQEGRMGVTVTFSAILELLREGLIEIVQSEPFAPIHVRAGA", "soluble fraction (log2)": 0.183}
{"RECORD_SEQUENCE": "HMSKHATLLEALADLSVKLKPHSQLPSERALSEEYGVSRMTLRRAIDVLQARGYIYSVPSKGLFVSEP", "soluble fraction (log2)": -1.89}
{"RECORD_SEQUENCE": "HMDGDVAVKGGDGVLEVRLANAANVRVYNLAGRLMADYTGTELHMPLPKGVYMVVAGDNRTKVVV", "soluble fraction (log2)": -0.476}

Incoming: Report soluble fraction (log2) for "HMNMTDVLVVNQTVRGGTQITESMLSVKKVDKSSLPDNYLKASLKDEVVGKYFDLGLTSGGVLTKDNISVS" please.
Outgoing: -0.154

Incoming: Report soluble fraction (log2) for "HMSFPFLMPNLEGLQLDQVRVILEENGLEIGQENYQPDSKFGPGTIINHQPSVDTVVQTGQKVNLQISGTD" please.
Outgoing: 0.126

Incoming: Report soluble fraction (log2) for "HMIPTDPNGDLIKILYTSDQINELYARAKLNDVEDLFLDWTKNVLGESNFEETGPTKNEYLIPQ" please.
Outgoing: -0.0775

---

Experiment: soluble fraction after stress (log2 fold change); higher = more stays soluble; pooled small domains, quantitative proteomics
Conditions: stress: 75 degC
Classification field: enter fulfilled for soluble fraction (log2) values not below -1, not fulfilled for values below it.

{"RECORD_SEQUENCE": "HMLLREKLESVLPFISVSALAKTYFKRSPQWFYQRLNGSIVNGKPIRFNDAELKTLAGALTDIGKKISQAA", "CAT": "fulfilled"}

Incoming: Does the sequence "HMWNKGETKIPTQAQNELIKRRQAGATWTSLSEWLKATYGIDIHRTNIQRWYDKEVYLDQEN" have recorded soluble fraction (log2) that is -1 or more?
Outgoing: fulfilled

Incoming: Does the sequence "HMKRTLLLEGRTIPYELTQKPVKNINIRVHADGSVRVSAGPWVSPEAVDAVLRQRSAFLLRALDQFAAQAP" have recorded soluble fraction (log2) that is -1 or more?
Outgoing: not fulfilled

Incoming: Does the sequence "HMSEIVEEQNTKLKQAVSKLSKRQQEVLYLKFEEGLDYEQISKIMDLKYQSVRNLVSTAIIKIKEH" have recorded soluble fraction (log2) that is -1 or more?
Outgoing: not fulfilled

Incoming: Does the sequence "HMTPQDYEYLRKLLKDQSGLDLSVDKQYLLESRLVPLSRKAGLAGIPELVQKMKAGSASLTAQVVEAMTT" have recorded soluble fraction (log2) that is -1 or more?
Outgoing: fulfilled

Incoming: Does the sequence "HMVEELDVQFIKLTVQGDHPWKNKKIRELSIPWDLLFVLIIRGDKSIIPNGKTTIKDGDIVVVSAPEYRG" have recorded soluble fraction (log2) that is -1 or more?
Outgoing: not fulfilled

Incoming: Does the sequence "HMAPSVNEVAWAQKIIDAHAEAAAAGKGLVVVDGKLIENLHVEEAKQLLSLSDAIAKNDASNG" have recorded soluble fraction (log2) that is -1 or more?
Outgoing: fulfilled

Incoming: Does the sequence "HMDRVTYPVSFNGKVRFQLELDAGMNAKEVETAALGHEKTAAQIEGKTIRKVIVVPGRIINIVV" have recorded soluble fraction (log2) that is -1 or more?
Outgoing: not fulfilled

---

The entries below come with measured soluble fraction (log2) values attached.
Assay: soluble fraction after stress (log2 fold change); higher = more stays soluble; pooled small domains, quantitative proteomics
Settings: stress: 75 degC
Kindly provide the number alone.

{"RECORD_SEQUENCE": "HMTKQEYLNQLKNELVKQGVADAEDVVTEYEQHFAFKLADGFGEEEIAKKLGDPAAIASQFVG", "soluble fraction (log2)": 0.669}

Incoming: Report soluble fraction (log2) for "HMDLTKLFDHDSEYGKSYVFGKITDEMIARAEQTLGYRMPASYIELLKVQNGGMISDELDESWLTTIYGIG" please.
Outgoing: -0.359

Incoming: Report soluble fraction (log2) for "HMGTLPSLAPSGEKTVRLPNLAGWSLRETMEILQKGGLQLLPIGSGISFKQSPPPGTTLNEGDAVTVWF" please.
Outgoing: 0.00884

Incoming: Report soluble fraction (log2) for "HMVVSDSAEIDKIVQDVIAANPKAIEDFKSGKTNVTGWLMGQVMKLSHGKANPKQATEILNKYLSK" please.
Outgoing: 0.513

---

Assay: soluble fraction after stress (log2 fold change); higher = more stays soluble; pooled small domains, quantitative proteomics
Conditions: stress: 75 degC
EXPERIMENTAL_ENDPOINT: soluble fraction (log2)

Some sequences with known soluble fraction (log2) results, for comparison:
{"RECORD_SEQUENCE": "HMKDMKISTKNLLQELAKNYPDQTSFRKNVIETTARAMGYTGKDFYPLLTTDNRVKIGTYDLATFLRSI", "EXPERIMENTAL_ENDPOINT": "soluble fraction (log2)", "RESULT": -0.969}
{"RECORD_SEQUENCE": "HMSDHSSLAGKEGVAVTPLRPAGTAEIDGKRMDVVTMGDYIKAGDHIKVVKVEGNRIIVAKN", "EXPERIMENTAL_ENDPOINT": "soluble fraction (log2)", "RESULT": 0.0173}
{"RECORD_SEQUENCE": "HMEDIQPSVIFQNNMIDGFKKFGVSFLQNRRNVNVNTLNGLASAGTYPKWQQLLVNKISYIDMLLSTGG", "EXPERIMENTAL_ENDPOINT": "soluble fraction (log2)", "RESULT": 0.0954}
{"RECORD_SEQUENCE": "HMVYFAKNIRHLRRLRGMSQELLAAELDITRARLGAYEESRSEPPLHLLIKISEFFKLPVDIIVKNDLTKS", "EXPERIMENTAL_ENDPOINT": "soluble fraction (log2)", "RESULT": -4.88}
{"RECORD_SEQUENCE": "HMNNWYESSIKSLVEEYFREHGFSVVFDSSEFWDVFIEKYHKQIPSSQIALFDQVAAEARSYAFNKK", "EXPERIMENTAL_ENDPOINT": "soluble fraction (log2)", "RESULT": -0.0798}

Incoming: Report soluble fraction (log2) for "HMSLPTYVQISEAIARRITAGQWLDGERLPPERTMAAEFGVAVGTLRKALSRLQDQKLLRRLQGSGNYINI" please.
Outgoing: -1.67

Incoming: Report soluble fraction (log2) for "HMTAPELGIRQDGNTLVIFWPSSVTGYVLKSADAVDTPPASWTSVTHTTVGDEHRAEITPTGNSRFFRLV" please.
Outgoing: -0.156

Incoming: Report soluble fraction (log2) for "HMESGNLIFTNAPIADVVNAIETRYGKKLQASNQTSDLQFTGIFKNTDEFSTVVKTIEIALGLQFEV" please.
Outgoing: -1.67

---

Assay: soluble fraction after stress (log2 fold change); higher = more stays soluble; pooled small domains, quantitative proteomics
Settings: stress: 75 degC
Classification field: enter true for soluble fraction (log2) values not below -0.9, false for values below it.

{"RECORD_SEQUENCE": "HMGQDLEAFLLKAVGQLDQGDGVTLDALLKVAVSNGGFVREVAEAKLDDMLDAGTLDEPRFGWFRVGAT", "CAT": "true"}
{"RECORD_SEQUENCE": "HMLNVNDVIARNVRAARERKKLTLDGAAELTGVSRSMLAQIEKGEVNPTISVVWKIANGFKVSFTSLVEPQ", "CAT": "false"}
{"RECORD_SEQUENCE": "HMAVLFFVKRGERILGPTRLADLFQHAASGRLRANDLVGESPKGPWLPARQLDELEDAWASSRDATEAAAA", "CAT": "true"}
{"RECORD_SEQUENCE": "HMGLIDNLTRIMEKKNISAYQLEKAGIVKQTTFTSWKKGTQPALDKIIKIMQYIEVTPNELFGY", "CAT": "false"}
{"RECORD_SEQUENCE": "HMSSPEAAEVQRLLKDGQHVQALKIIDESLARNPKDPQMRFRRGVALSMLDRKNEALAVFQKLVED", "CAT": "true"}

Incoming: Does the sequence "HMKSAIKQNILLYLSNKGVTSYEFYKISGVTRGILQQSNGISEDNIAKFLAYAPDVNIEWLLTGKGDMLKH" have recorded soluble fraction (log2) that is -0.9 or more?
Outgoing: false

Incoming: Does the sequence "HMTKIKAIFFDIDGTIRSFKTKTIPENTANTLKKLKEQGIKIFIATGRAPFHTTFLNDLLDFKFDGYITIN" have recorded soluble fraction (log2) that is -0.9 or more?
Outgoing: true

Incoming: Does the sequence "HMYTDGVPALTDLKKESKPGRRQYVGVEDIPKVLGGLGITILSTSKGLMSGHQAKKKNIGGELIASV" have recorded soluble fraction (log2) that is -0.9 or more?
Outgoing: true

Incoming: Does the sequence "HMIAGHLQIKNDYYYMVLSYTDSDGKRKQPWIPTGLPMKGNKKRAEKMLIETRQTYVPPVSSG" have recorded soluble fraction (log2) that is -0.9 or more?
Outgoing: false

Incoming: Does the sequence "HMSATVLVHVLGEVRKPGVVSLPEGSRVQDAITAAGGLTSRAKPGDLNLAARVSDGAQLVIGRSGSQVRTT" have recorded soluble fraction (log2) that is -0.9 or more?
Outgoing: true

Incoming: Does the sequence "HMNQTEKSKITHNELLKAAHSLFIEQGFNHTTITDIVTRAGYSTGIFYKHYKTKTDILVELWTNYIE" have recorded soluble fraction (log2) that is -0.9 or more?
Outgoing: false

Incoming: Does the sequence "HMSVAVKAPLQGTVMKVNVKPGDTVTKGAPVAVIEALKMENDVPAPQDGVVASVDVKSGDSVKTDQVLLTL" have recorded soluble fraction (log2) that is -0.9 or more?
Outgoing: true

Incoming: Does the sequence "HMRIDSFEDARRRFEYDYLTRLLKLTQGSVTQAAKLAKRNRTEFYKLLQRHGIEAAHFKPTS" have recorded soluble fraction (log2) that is -0.9 or more?
Outgoing: false

Incoming: Does the sequence "HMNKFRVGDEVEIVKLDKTIQHFGGEEVLSPVGTKTYITYVDVTGKEIEIDKDIYSYHADDLTLV" have recorded soluble fraction (log2) that is -0.9 or more?
Outgoing: true

Incoming: Does the sequence "HMKTEIKSPLPGIVLKIFVRTGEYVDKNQRLFSLEAMKMENEIKAERAGVIAGIRISEGQSVLQDEVIMEM" have recorded soluble fraction (log2) that is -0.9 or more?
Outgoing: false

Incoming: Does the sequence "HMRQTGWVTADSLNVRARPSLQAERVEKVTYGQQVQIMFKQGQWYQIATENGKIGWVSSEYIAAVSP" have recorded soluble fraction (log2) that is -0.9 or more?
Outgoing: false
